# assay-summary: yeast display, Sf9 membrane polyspecificity reagent, FACS + sequencing; frameworks hold sequencing errors
property: polyreactivity (PSR sort gate)

chain_sequence=QVHLVESGGGLVQAGGSLRLSCAASGSIIKYYAIGWYRQAPGKERELVAAISWRGGRTYADSVKGRFTISRDNAKNTVYIQMNSLKPEDTAVYYCATSSRYRYWHRYDYWGQGTQVTVSS property="polyreactivity (PSR sort gate)" result="high polyreactivity"
chain_sequence=QVQRVESGGGLVQAGGSLRLSCADSGTYGSYAMGWYRQAPGTEREFVAAISASGGSTYYADSVKGRFTISRDNAKNTVYLQMNSLKPEDTAVYYCNKSPRRNRQYDYWGQGSQVTVSS property="polyreactivity (PSR sort gate)" result="high polyreactivity"
chain_sequence=QVQLVESGGGLVQAGGSLRLSCAASGRTFQRNAMGWYRQAPGKERELVAAISGGGSTYYADSVKGRFTISRDNAKNTVYLQMNSLKPEDTAVYYCAARSATRLYYFSRGYDYWGQGTQVTVSS property="polyreactivity (PSR sort gate)" result="low polyreactivity"
chain_sequence=QVQLVESGRGLVQAGVSLRLSCAASGSIFDPNAMGWYRQAPGKERELVAAITSGGGSTYYADSVKGRFTISRDNAKNTVYLQMNSLKPEDTAVYYCNKVFVLQYKFVAWFDYWGQGTQVTVSS property="polyreactivity (PSR sort gate)" result="low polyreactivity"
chain_sequence=QVQLVESGGGLVQAGGSLRLSCAASGRIFRGNGMGWYRQAPGKERELVAAIRRSGGSTYYADSVKGRFTISRDNAKNTVYLQMNSLKPDDTAVFYCNADYTVVLSRVIYARGYWGQGTQVTVSS property="polyreactivity (PSR sort gate)" result="high polyreactivity"
chain_sequence=QVQLVESGGGLVQAGGSLRLSCAASGRIFVFNAMGWYRQAPGKERELVAAITWSGGTTYYADSVKGRFTISRDNAKNTVYLQMNSLKPEDTAVYFCNAYLNRRMGYWGQGTQVTVSS property="polyreactivity (PSR sort gate)" result="high polyreactivity"
chain_sequence=QVQLVESGGGLVQAGGSLRLSCAASGRIFNSNTMGWYRQAPGKERELVAAIRGSGGSTYADSVKGRFTISRDNAKNTVYLQMNSLKPEDTAVYYCAASPRRWYTPDAVSTYRMYYWGQGTQVTVSS property="polyreactivity (PSR sort gate)" result="high polyreactivity"
chain_sequence=QVQLVESGGGLVQPGGSLRLSCAASGIIFRYYAMGWYRQAPGKERELVAAITWSGGSTYYADSVKGRFTISRDNAKNTVYLQMNRLKPEDTAVFDCAADWWSVRGYAVDYWGQGTQVTVSS property="polyreactivity (PSR sort gate)" result="high polyreactivity"
chain_sequence=QVQLVESGGGLVQAGGSLRLSCAASGRIFPDNTMGWSRQAPGKERELVAVITYSGGSTYYADSVKGRFTISRDNAKNTVYLQMNSLKPEDTAVYYCAKTLGSQNYDFDYWGQGTQVTVSS property="polyreactivity (PSR sort gate)" result="low polyreactivity"
chain_sequence=QVQLVESGGGLVQAGGSLRLSCAASGRIFVYYAMGWYRQAPGKERELVAAISSGGDRTYYADSVKGRFTISRDNAKNTVYLQMNCLKPEDTAVYYCAKVYSTVKRYHWVGSRYDYWGQGTQVTVSS property="polyreactivity (PSR sort gate)" result="high polyreactivity"
chain_sequence=QVQLVESGGGLVQAGGSLRLSCAASGSIFGKNVMGWYRQAPGKERELVAAISRSGGRTYYADSVKGRFTISRDNAKNTVYLQMNSLKPEDTAVYYCAADGQPIGQQTYDYWGQGTQVTVSS property="polyreactivity (PSR sort gate)" result="high polyreactivity"
